assay: Solubility of the compound at pH 1.1 to 7.4; assay type: physicochemical; conditions: buffer
Assay Readout: solubility (µM)

Prompt: Please give the measured solubility for this compound: COc1cc(CN(CC2CC2)[C@@H](CC(=O)O)c2ccc(Cl)c(F)c2)ccc1OCCN1C(=O)CCC1=O.Cl
Completion: 3000

Prompt: Now try C[C@@H](c1ccc(Cl)cc1)N(Cc1ccc(OCCN2C(=O)CCC2=O)c(C(=O)O)c1)CC1CCCC1 .
Completion: 3000

Prompt: Request: COc1cc(CN(C2CCC2)C(CC(=O)O)c2ccc(Cl)cc2)ccc1OCCn1c(=O)ccn(C)c1=O (configuration not stated)
Completion: 3000

Prompt: Also need COc1cc(CN(CC(C)C)C(CC(=O)O)c2ccc(Cl)cc2Cl)ccc1OCCN1C(=O)CCC1=O (configuration not stated) , thanks.
Completion: 3000

Prompt: Record: Cc1cc(CN(CC2CCCC2)[C@@H](CC(=O)O)c2ccc(Cl)cc2)ccc1OCCN1C(=O)CCC1=O
Completion: 3000

Prompt: Next: COc1cc(CN(CC2CCCC2)[C@@H](CC(=O)O)c2ccc(Cl)c(F)c2)ccc1OCCN1C(=O)CCC1=O
Completion: 3000

Prompt: Same for Cc1cc(CN(CC(C)C)[C@@H](CC(=O)O)c2ccc(Cl)cc2)ccc1OCCN1C(=O)CCC1=O
Completion: 3000

Prompt: Entry Cc1cc(CN(CC(C)C)[C@@H](CC(=O)O)c2ccc(Cl)c(F)c2)ccc1OCCN1C(=O)CCC1=O.Cl please
Completion: 3000

Prompt: Let us now turn to Cc1cc(CN(CC(C)C)C(CC(=O)O)c2ccc3c(c2)CCO3)ccc1OCCN1C(=O)CCC1=O (configuration not stated)
Completion: 3000

Prompt: Same read-out for CCCN(Cc1ccc(OCCN2C(=O)CCC2=O)c(OC)c1)C(c1ccc(Cl)cc1)C(C)C(=O)O (configuration not stated) ?
Completion: 3000

Prompt: What about CCc1cc(CN(CC2CCCC2)[C@@H](CC(=O)O)c2ccc(Cl)cc2)ccc1OCCN1C(=O)CCC1=O ?
Completion: 3000

Prompt: Now consider CCCN(Cc1ccc(OCCN2C(=O)CCC2=O)c(OC)c1)C(CC)c1ccc(Cl)c(C(=O)O)c1 (configuration not stated) .
Completion: 3000

Prompt: Can you handle COc1cc(CN(CC(C)C)C(CC(=O)O)c2ccc(Cl)cc2)ccc1OCCn1c(=O)ccn(C)c1=O (configuration not stated) next?
Completion: 3000

Prompt: Next up: CCCN(Cc1ccc(OCCN2C(=O)CCC2=O)c(C)c1)C(c1ccc(Cl)cc1)C1(C(=O)O)CC1 (configuration not stated)
Completion: 3000

Prompt: Queued: CCCN(Cc1ccc(OCCN2C(=O)CCC2=O)c(OC)c1)C(C(=O)O)c1ccc(Cl)cc1 (configuration not stated)
Completion: 3000

Prompt: Now consider COc1cc(CN(CC(C)C)C(CC(=O)O)c2ccc3c(c2)CCO3)ccc1OCCn1c(=O)ccn(C)c1=O (configuration not stated) and answer again.
Completion: 3000

Prompt: What would you report for Cc1cc(CN(CC(C)C)C(CC(=O)O)c2ccc(Cl)cc2)ccc1OCCN1C(=O)CCC1=O (configuration not stated) ?
Completion: 3000

====

assay: Absolute oral bioavailability in Balb/c mouse at 10 mg/kg; type: ADME, organism-based; conditions: in vivo
Assay Readout: bioavailability (%)

Prompt: Report bioavailability for Cl.O=C(O)C[C@@H](c1ccc(Cl)c(F)c1)N(Cc1ccc(OCCN2C(=O)CCC2=O)c(F)c1)CC1CC1 please.
Completion: 70

P: Cc1cc(CN(CC2CCCC2)[C@@H](CC(=O)O)c2ccc(Cl)cc2)ccc1OCCN1C(=O)CCC1=O
Q: Cl.O=C(O)C[C@@H](c1ccc(Cl)c(Cl)c1)N(Cc1ccc(OCCN2C(=O)CCC2=O)c(F)c1)CC1CC1
R: COc1cc(CN(CC2CC2)[C@@H](CC(=O)O)c2ccc(Cl)c(F)c2)ccc1OCCN1C(=O)CCC1=O.Cl
S: Cl.O=C(O)C[C@@H](c1ccc(Cl)c(F)c1)N(Cc1ccc(OCCN2C(=O)CCC2=O)c(Cl)c1)CC1CC1
Prompt: hey, can you rank those molecules up there by bioavailability? biggest number first please Return value: ordered labels per request.
Completion: Q, S, P, R

Reference source: ChEMBL document CHEMBL3864164
